Hey, just so you know, these numbers are from patent US12213969B2.

The entries below are paired with their reported IC50.
Molecular target: Full length human recombinant HDAC6 protein (Homo sapiens)
Sequence (Q9UBN7 1-1215): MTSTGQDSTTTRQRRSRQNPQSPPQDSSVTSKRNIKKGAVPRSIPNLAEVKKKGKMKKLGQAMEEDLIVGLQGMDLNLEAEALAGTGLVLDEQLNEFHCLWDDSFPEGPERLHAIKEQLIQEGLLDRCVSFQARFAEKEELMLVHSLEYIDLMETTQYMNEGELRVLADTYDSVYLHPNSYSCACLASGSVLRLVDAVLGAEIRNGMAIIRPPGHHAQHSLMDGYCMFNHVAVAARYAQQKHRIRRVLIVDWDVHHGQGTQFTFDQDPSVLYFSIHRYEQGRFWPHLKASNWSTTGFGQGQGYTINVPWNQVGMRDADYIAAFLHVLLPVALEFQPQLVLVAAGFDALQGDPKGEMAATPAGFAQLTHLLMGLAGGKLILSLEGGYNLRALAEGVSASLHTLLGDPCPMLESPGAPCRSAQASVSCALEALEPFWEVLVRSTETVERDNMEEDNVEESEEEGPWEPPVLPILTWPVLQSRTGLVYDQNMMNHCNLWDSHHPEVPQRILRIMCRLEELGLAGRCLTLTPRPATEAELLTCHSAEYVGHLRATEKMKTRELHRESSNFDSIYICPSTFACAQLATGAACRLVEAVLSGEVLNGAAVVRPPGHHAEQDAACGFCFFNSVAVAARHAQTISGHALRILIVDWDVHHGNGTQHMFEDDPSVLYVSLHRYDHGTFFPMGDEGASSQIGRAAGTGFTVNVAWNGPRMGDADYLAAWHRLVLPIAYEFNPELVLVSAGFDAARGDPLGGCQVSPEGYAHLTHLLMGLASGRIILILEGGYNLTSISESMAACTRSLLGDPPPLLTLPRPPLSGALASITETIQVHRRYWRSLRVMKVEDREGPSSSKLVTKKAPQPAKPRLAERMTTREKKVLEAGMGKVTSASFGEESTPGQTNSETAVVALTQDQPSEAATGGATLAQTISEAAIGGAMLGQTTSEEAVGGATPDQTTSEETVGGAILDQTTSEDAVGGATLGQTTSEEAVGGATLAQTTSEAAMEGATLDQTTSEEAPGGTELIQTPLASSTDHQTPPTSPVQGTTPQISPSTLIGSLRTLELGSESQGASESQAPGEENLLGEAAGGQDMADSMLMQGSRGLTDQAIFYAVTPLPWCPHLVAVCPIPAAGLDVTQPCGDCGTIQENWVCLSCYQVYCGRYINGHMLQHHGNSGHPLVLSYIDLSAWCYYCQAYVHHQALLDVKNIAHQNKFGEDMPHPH
Assay: In vitro histone deacetylase assay: enzymatic HDAC6 electrophoretic mobility shift assay
Conditions: peptide substrate RHKK(Ac)-NH2 2 μM, enzyme 1 nM, 25° C., 12 concentrations; read-out: HDAC6 activity range (IC50)

[
  {
    "SMILES CODE": "CCN1CC[C@@]2(Cc3ccc(C(=O)NO)cc3C2)C1=O",
    "IC50": "> 50 nM"
  },
  {
    "SMILES CODE": "CC(=O)N1CC[C@]2(Cc3ccc(C(=O)NO)cc3C2)C1",
    "IC50": "10 to 50 nM"
  },
  {
    "SMILES CODE": "O=C(NO)c1ccc2c(c1)C[C@]1(CCN(Cc3ccccc3)C1=O)C2",
    "IC50": "10 to 50 nM"
  },
  {
    "SMILES CODE": "CN1CC[C@]2(Cc3ccc(C(=O)NO)cc3C2)C1",
    "IC50": "10 to 50 nM"
  },
  {
    "SMILES CODE": "CC(C)N1CC[C@@]2(Cc3ccc(C(=O)NO)cc3C2)C1=O",
    "IC50": "> 50 nM"
  },
  {
    "SMILES CODE": "O=C(NO)c1ccc2c(c1)C[C@@]1(CCN(C(=O)c3ccccc3)C1)C2",
    "IC50": "≤ 10 nM"
  },
  {
    "SMILES CODE": "O=C(NO)c1ccc2c(c1)C[C@@]1(CCN(c3ccncc3)C1=O)C2",
    "IC50": "10 to 50 nM"
  }
]
